Task for the reader: assign each of the following compounds its reported CC50 at 48 h.
Assay: Cytotoxicity against C57BL/6 mouse bone marrow measured after 48 hrs by CCK8 assay
Format: tissue-based, BMDM
Details: mouse bone marrow cells
Numbers only, in µM.

1) COc1ccc2c(c1)CCN=C2Cc1ccc(OCc2ccccc2)c(OC)c1C | 19.9

For COc1cc2c(cc1OC)C(Cc1ccc(OCc3ccccc3)c(OC)c1)=NCC2 , write its CC50 at 48 h.
26.9

Origin of measurements: ChEMBL document CHEMBL4813915
